Target: CDK12 (nuclear staining in CAL-120 cells) (Homo sapiens, UniProt Q9NYV4)
Construct: endogenous in cells; host or cells: CAL-120 human breast cancer cells (DSMZ ACC 459)
Sequence (Q9NYV4 whole entry): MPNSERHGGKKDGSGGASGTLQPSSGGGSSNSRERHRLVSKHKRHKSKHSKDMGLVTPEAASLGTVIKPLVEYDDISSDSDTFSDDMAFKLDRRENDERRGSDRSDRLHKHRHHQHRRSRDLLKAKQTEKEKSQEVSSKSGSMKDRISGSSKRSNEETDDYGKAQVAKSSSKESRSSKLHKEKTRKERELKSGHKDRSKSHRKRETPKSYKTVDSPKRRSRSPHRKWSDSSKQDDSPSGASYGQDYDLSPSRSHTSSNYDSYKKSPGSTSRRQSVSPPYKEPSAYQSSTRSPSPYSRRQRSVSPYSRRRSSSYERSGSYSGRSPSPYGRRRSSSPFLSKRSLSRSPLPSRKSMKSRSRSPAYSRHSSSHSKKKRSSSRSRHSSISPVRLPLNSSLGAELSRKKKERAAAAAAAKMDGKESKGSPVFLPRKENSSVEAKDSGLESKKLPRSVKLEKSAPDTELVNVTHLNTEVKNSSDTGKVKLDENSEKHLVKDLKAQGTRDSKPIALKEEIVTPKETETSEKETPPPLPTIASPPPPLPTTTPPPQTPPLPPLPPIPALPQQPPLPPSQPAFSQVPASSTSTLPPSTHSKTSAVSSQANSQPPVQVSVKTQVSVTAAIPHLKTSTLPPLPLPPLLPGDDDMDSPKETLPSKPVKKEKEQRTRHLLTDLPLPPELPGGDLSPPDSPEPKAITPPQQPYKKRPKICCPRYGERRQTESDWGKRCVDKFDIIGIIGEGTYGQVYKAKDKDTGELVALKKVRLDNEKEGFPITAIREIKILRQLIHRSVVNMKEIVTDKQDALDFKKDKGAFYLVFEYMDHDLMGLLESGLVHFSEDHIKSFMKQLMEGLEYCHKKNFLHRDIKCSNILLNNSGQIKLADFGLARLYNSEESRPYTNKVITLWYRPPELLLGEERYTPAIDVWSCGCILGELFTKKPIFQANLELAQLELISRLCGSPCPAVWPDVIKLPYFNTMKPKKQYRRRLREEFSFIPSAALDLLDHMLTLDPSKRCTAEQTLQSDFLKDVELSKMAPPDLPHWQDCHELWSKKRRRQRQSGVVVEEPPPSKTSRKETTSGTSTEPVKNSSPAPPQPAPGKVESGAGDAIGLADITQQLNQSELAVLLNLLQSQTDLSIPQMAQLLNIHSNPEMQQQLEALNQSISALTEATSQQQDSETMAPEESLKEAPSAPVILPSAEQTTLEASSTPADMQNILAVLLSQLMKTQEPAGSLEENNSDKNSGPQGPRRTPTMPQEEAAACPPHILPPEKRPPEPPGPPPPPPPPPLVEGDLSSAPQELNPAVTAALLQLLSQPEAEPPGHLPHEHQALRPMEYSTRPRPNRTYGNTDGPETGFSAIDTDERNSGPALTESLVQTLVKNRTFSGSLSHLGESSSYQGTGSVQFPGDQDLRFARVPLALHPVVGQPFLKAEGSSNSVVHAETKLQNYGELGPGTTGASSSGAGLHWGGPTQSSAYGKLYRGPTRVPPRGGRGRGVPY
Sequence (O75909 whole entry partner): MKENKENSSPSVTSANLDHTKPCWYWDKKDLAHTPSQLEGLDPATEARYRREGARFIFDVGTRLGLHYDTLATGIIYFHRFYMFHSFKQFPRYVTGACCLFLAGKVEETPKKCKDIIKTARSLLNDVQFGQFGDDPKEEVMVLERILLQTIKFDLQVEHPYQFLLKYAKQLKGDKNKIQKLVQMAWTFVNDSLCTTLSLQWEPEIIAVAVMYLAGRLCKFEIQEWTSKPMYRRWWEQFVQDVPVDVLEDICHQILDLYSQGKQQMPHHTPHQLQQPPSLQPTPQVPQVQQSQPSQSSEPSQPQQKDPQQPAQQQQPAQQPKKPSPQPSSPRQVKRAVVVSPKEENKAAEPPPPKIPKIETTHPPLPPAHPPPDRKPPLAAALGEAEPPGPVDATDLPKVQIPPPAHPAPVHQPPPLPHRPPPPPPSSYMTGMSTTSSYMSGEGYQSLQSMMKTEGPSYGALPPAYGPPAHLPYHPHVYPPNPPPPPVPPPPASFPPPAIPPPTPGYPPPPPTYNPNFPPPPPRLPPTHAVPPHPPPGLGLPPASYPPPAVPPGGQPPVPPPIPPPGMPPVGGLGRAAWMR
Assay: CDK12 nuclear protein level: immunofluorescence/high content analysis (CAL-120)
Type: cell-based
Conditions: ratio of IC50 CDK12 high ATP kinase assay to DC50 CDK12 degradation (IF, CAL-120)
Experimental: In the context of the present invention, the term “DC50 CDK12” refers to the DC50 values obtained according to the assay described in this section (7) herein below, i.e. the DC50 values for the degradation of CDK12. Plates are then incubated for 24 h at 37° C. in an humidified incubator and fixed with 4% PFA for 10 min. […] Nuclear and cytoplasmic intensity as well as the nuclear/cytoplasmic intensity ratio is determined by automated image analysis using custom generated scripts (MetaXpress). […]
Record form. Attribute: (IC50 CDK12 high ATP) to (Degradation DC50 CDK12) ratio. Fill in for each entry.
Reply briefly: the number, and no unit.

Q) Name the recorded (IC50 CDK12 high ATP) to (Degradation DC50 CDK12) ratio for `Cc1cccc2[nH]c(CNc3nc(N4CCN(C)CC4)nc4c(Br)cnn34)nc12` .
A) 2046

Q) Name the recorded (IC50 CDK12 high ATP) to (Degradation DC50 CDK12) ratio for `CC1(C)CN(c2nc(NCc3nc4ccccc4[nH]3)n3ncc(Br)c3n2)CCO1` .
A) 246

Q) Name the recorded (IC50 CDK12 high ATP) to (Degradation DC50 CDK12) ratio for `Fc1cc(F)cc(-c2nnc(CNc3nc(N4CCOCC4)nc4c(C(F)(F)F)cnn34)[nH]2)c1` .
A) 12

Q) Name the recorded (IC50 CDK12 high ATP) to (Degradation DC50 CDK12) ratio for `COc1cccc2[nH]c(CNc3nc(N4CCNCC4)nc4c(C5CC5)cnn34)nc12` .
A) 1184

====

molecular target: CDK2/CycE (Homo sapiens, UniProt P24941); experiment: CDK2/CycE kinase assay (TR-FRET, 2 mM ATP); conditions: 2 mM ATP (high ATP); median; read-out: CDK2/CyclinE, 2 mM ATP (high ATP), IC50 (median)
Quantity name: pIC50
Here pIC50 is given on a logarithmic scale as minus log10 of the concentration in mol/L.

Q) Name the recorded pIC50 for CN1CCN(c2nc(NCc3nc4ccccc4[nH]3)n3ncc(Br)c3n2)C(CO)C1 (single isomer, unassigned) [Example 280] .
A) 4.76

Q) Name the recorded pIC50 for `Brc1cnn2c(NCc3nc4ccccc4[nH]3)nc(N3CCC4(CCN4)CC3)nc12` .
A) 5.39

Q) Name the recorded pIC50 for `Fc1cc(-c2nnc(CNc3nc(N4CCOCC4)nc4c(Br)cnn34)[nH]2)cc(F)c1F` .
A) 5.74

Q) Name the recorded pIC50 for `COc1ccc2[nH]c(CNc3nc(N4CCOCC4)nc4c(Br)cnn34)nc2c1` .
A) 5.29

Q) Name the recorded pIC50 for `CN1CCN(c2nc(NCc3nc4c(F)c(Cl)ccc4[nH]3)n3ncc(Br)c3n2)CC1` .
A) 5.12

Q) Name the recorded pIC50 for `Clc1cc2nc(CNc3nc(N4CC5CCC(C4)N5)nc4c(Br)cnn34)[nH]c2cc1Cl` .
A) 4.98

Q) Name the recorded pIC50 for `Cc1cccc(-c2nnc(CNc3nc(N4CCOCC4)nc4c(Br)cnn34)[nH]2)c1` .
A) 5.68

Q) Name the recorded pIC50 for `Fc1c(Cl)ccc2[nH]c(CNc3nc(N4CC5CCC(C4)N5)nc4c(C5CC5)cnn34)nc12` .
A) 4.84

Q) Name the recorded pIC50 for `Brc1cnn2c(NCc3nnc(-c4ccccc4)[nH]3)nc(N3CCCC3)nc12` .
A) 5.33

Q) Name the recorded pIC50 for `Fc1cccc(-c2nnc(CNc3nc(N4C[C@H]5C[C@@H]4CO5)nc4c(Br)cnn34)[nH]2)c1` .
A) 5.77

Q) Name the recorded pIC50 for `Brc1cnn2c(NCc3nc4ccccc4[nH]3)nc(N3C[C@@H]4C[C@H]3CN4)nc12` .
A) 5.75

Q) Name the recorded pIC50 for `CC(C)c1cnn2c(NCc3ncc(-c4ccccc4)[nH]3)nc(N3CCOCC3)nc12` .
A) 5.14

Q) Name the recorded pIC50 for `COc1cccc2[nH]c(CNc3nc(N4CCN(C)CC4)nc4c(C5CC5)cnn34)nc12` .
A) 4.87

Q) Name the recorded pIC50 for CC1CN(C)CCN1c1nc(NCc2nc3ccccc3[nH]2)n2ncc(Br)c2n1 (centres unmarked) [Example 156] .
A) 5.46

Q) Name the recorded pIC50 for `FC(F)(F)Oc1ccccc1-c1nnc(CNc2nc(N3CCOCC3)nc3c(Br)cnn23)[nH]1` .
A) 4.74

Q) Name the recorded pIC50 for `Fc1cc2nc(CNc3nc(N4CC5CCC(C4)N5)nc4c(Br)cnn34)[nH]c2cc1Cl` .
A) 4.88

Q) Name the recorded pIC50 for `O[C@H]1C[C@@H](Nc2nc(NCc3nc4ccccc4[nH]3)n3ncc(Br)c3n2)C1` .
A) 5.56

Q) Name the recorded pIC50 for `Brc1cnn2c(NCc3nc4ccccc4[nH]3)nc(N3C[C@@H]4CN[C@@H]4C3)nc12.O=C(O)C(F)(F)F` .
A) 4.79

====

Record form. Attribute: IC50. Fill in for each entry.
Target: CDK9/CycT1 (Homo sapiens)
Construct: Recombinant full-length His-tagged human CDK9 and CycT1; purchased Life Technologies PV4131; host or cells: insect cells
Sequence (P50750 whole entry): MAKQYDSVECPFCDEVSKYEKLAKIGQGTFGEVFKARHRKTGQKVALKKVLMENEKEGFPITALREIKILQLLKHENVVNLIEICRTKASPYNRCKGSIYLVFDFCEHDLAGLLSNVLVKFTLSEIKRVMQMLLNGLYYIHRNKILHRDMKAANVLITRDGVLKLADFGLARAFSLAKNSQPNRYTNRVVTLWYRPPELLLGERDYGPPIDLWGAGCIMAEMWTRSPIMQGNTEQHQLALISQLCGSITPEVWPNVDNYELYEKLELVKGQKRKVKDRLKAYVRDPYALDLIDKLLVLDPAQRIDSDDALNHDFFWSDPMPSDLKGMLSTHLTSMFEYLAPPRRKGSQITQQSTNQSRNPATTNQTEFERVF
Sequence (O60563 whole entry partner): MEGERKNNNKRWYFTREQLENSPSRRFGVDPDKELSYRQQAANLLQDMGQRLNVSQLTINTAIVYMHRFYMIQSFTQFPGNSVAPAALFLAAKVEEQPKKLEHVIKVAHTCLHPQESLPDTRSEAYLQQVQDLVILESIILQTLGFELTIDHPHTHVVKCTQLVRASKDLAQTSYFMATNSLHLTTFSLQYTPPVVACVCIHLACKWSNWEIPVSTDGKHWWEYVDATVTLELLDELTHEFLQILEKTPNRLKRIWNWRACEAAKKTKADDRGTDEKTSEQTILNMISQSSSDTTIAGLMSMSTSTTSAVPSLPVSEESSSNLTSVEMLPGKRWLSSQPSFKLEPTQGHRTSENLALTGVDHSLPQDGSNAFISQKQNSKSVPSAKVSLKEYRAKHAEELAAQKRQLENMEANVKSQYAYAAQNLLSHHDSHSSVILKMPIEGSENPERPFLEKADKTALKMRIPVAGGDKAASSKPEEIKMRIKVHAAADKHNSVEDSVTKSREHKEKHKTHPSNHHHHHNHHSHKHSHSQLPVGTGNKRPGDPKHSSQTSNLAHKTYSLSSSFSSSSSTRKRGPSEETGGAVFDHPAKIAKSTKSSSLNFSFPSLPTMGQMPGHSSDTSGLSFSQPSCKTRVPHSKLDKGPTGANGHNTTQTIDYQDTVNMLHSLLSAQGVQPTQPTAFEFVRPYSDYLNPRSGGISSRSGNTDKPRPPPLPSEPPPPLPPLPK
Assay: CDK9/CycT1 high ATP kinase assay (TR-FRET, 2 mM ATP)
Assay type: biochemical
Settings: 2 mM ATP (high ATP); median; read-out: CDK9/CyclinT1, 2 mM ATP (high ATP), IC50 (median)
Procedure: CDK9/CycT1-inhibitory activity of compounds of the present invention at a high ATP concentration after preincubation of enzyme and test compounds was quantified employing the CDK9/CycT1 TR-FRET assay as described in the following paragraphs. Recombinant full-length His-tagged human CDK9 and CycT1, expressed in insect cells and purified by Ni-NTA affinity chromatography, were purchased from Life Technologies (Cat. No PV4131). As substrate for the kinase reaction biotinylated peptide biotin-Ttds-[…] […]

Q) Field: IC50 (CDK9/CycT1 (Homo sapiens)). Entry: OC[C@H]1CCCCN1c1nc(NCc2nnc(-c3ccccc3)[nH]2)n2ncc(Br)c2n1 [Example 71]
A) 1.76 µM

Q) Field: IC50 (CDK9/CycT1 (Homo sapiens)). Entry: Brc1cnn2c(NCc3nc4ccccc4[nH]3)nc(N3C[C@H]4CNC[C@H]4C3)nc12 [Example 283]
A) > 20 µM

Q) Field: IC50 (CDK9/CycT1 (Homo sapiens)). Entry: FC(F)(F)c1ccc2[nH]c(CNc3nc(N4CC5CCC(C4)N5)nc4c(Br)cnn34)nc2c1 [Example 354]
A) > 20 µM

Q) Field: IC50 (CDK9/CycT1 (Homo sapiens)). Entry: CCN1CCN(c2nc(NCc3nc4ccccc4[nH]3)n3ncc(Br)c3n2)CC1 [Example 137]
A) > 20 µM

====

system: CAL-120, human breast adenocarcinoma cells; experiment: Proliferation assay CAL-120 (crystal violet, 4 days); assay type: cell-based; details: Homo sapiens, CAL-120, 96 h, CAL-120 cells, median, read-out: Prolif-CAL-120, IC50-[mol/l] (median)
pIC50: −log10 of the molar value.
Decide by pIC50: equal to or exceeding 7 means TRUE, less means FALSE.

Q) // inclusive: pIC50 at least 7? input: `FC(F)(F)c1ccccc1-c1cnc(CNc2nc(N3CCOCC3)nc3c(Br)cnn23)[nH]1`
A) TRUE

Q) // inclusive: pIC50 at least 7? input: `Brc1cnn2c(NCc3nnc(-c4ccccc4)[nH]3)nc(N3CCCC3)nc12`
A) TRUE

Q) // inclusive: pIC50 at least 7? input: `CN(CC(C)(C)O)c1nc(NCc2nc3cc(F)c(Cl)cc3[nH]2)n2ncc(C3CC3)c2n1`
A) TRUE

Q) // inclusive: pIC50 at least 7? input: `Cc1cc(-c2cnn3c(NCc4nc5ccccc5[nH]4)nc(N4CCN(C)CC4)nc23)ccn1`
A) FALSE

Q) // inclusive: pIC50 at least 7? input: `Fc1cc2nc(CNc3nc(N4CCOCC4)nc4c(Br)cnn34)[nH]c2cc1Cl`
A) TRUE

Q) // inclusive: pIC50 at least 7? input: `C[C@@H]1CN(c2nc(NCc3nnc(-c4ccccc4)[nH]3)n3ncc(Br)c3n2)C[C@H](C)N1C`
A) TRUE

Q) // inclusive: pIC50 at least 7? input: C[C@@H]1CN(c2nc(NCc3nnc(-c4ccccc4)[nH]3)n3ncc(Br)c3n2)CCN1C.O=CO [Example 130, formate]
A) TRUE

Q) // inclusive: pIC50 at least 7? input: `CN1CCN(c2nc(NCc3nc4ccccc4[nH]3)n3ncc(Br)c3n2)CC1=O`
A) FALSE
